target: recombinant human TGF-β1 (R&D systems) (human, UniProt P01137 279-390); assay: cell-based or functional assay
Sequence (P01137 279-390 limits assumed): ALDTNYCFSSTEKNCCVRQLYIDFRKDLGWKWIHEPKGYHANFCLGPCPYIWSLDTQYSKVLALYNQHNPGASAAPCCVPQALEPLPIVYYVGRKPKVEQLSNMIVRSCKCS
Positions of bridges follow the written chain, without caps; N, C: chain ends. Non-standard residues stand in square brackets, D forms with d. No end group written: not given here. 1Nal = N[C@@H](Cc1cccc2ccccc12)C(=O)O; Gly(NCH2CH2Ph) = O=C(O)CNCCc1ccccc1; 4Pal = N[C@@H](Cc1ccncc1)C(=O)O
Quick rule for you: SBE reporter % inhibition, peptide 0.075 nM at 2% or higher means 1, lower means 0.

[[record]]
binder = "{CH2CO}-F[1Nal]VKNV[4Pal]DD[Gly(NCH2CH2Ph)]V[1Nal]YHVCG (thioether N-16; not fully specified (C-terminus), cyclic peptide; C-terminal G is a linker) [TGFb1_007]"
category_label = 0

[[record]]
binder = "{CH2CO}-FWVVNVYDD[Gly(NCH2CH2Ph)]V[1Nal]YHVCG (thioether N-16, cyclic peptide; C-terminal G is a linker) [TGFb1_003]"
category_label = 0

[[record]]
binder = "{CH2CO}-F[1Nal]VVNV[4Pal]DD[Gly(NCH2CH2Ph)]V[1Nal]YHVCG (thioether N-16; not fully specified (C-terminus), cyclic peptide; C-terminal G is a linker) [TGFb1_006]"
category_label = 1

[[record]]
binder = "{CH2CO}-F[1Nal]VVNV[4Pal]DD[Gly(NCH2CH2Ph)]V[1Nal][4Pal]HVCG (thioether N-16; not fully specified (C-terminus), cyclic peptide; C-terminal G is a linker) [TGFb1_009]"
category_label = 1

[[record]]
binder = "{CH2CO}-F[1Nal]VVNVYDD[Gly(NCH2CH2Ph)]V[1Nal]YHVCG (thioether N-16, cyclic peptide; C-terminal G is a linker) [TGFb1_001]"
category_label = 1

